# assay-summary: BET inhibitor-based combinations targeting novel dependencies in MECOM-rearranged (r) AML: UCSD-AML1 cell line (AID 2202235); note: nearly all actives have a fitted effect of over 40% in size; note: potency is the fitted concentration of half-maximal effect
# details: UCSD-AML1 AML cells viability, CellTiter-Glo, 48 h; series mostly up to 46 µM
Results filed as inconclusive are left out. The source made the active and inactive calls. Calls come from the whole dose curve; as a rule, active = well fitted inhibition curve with a large enough effect; inconclusive = small, poorly fitted or top-dose-only effect; inactive = no such curve, though single readings can be large or run the other way.
measured-metric: Potency

Below: 10 molecules and their reported Potency.
[[record]]
molecule = "CNC[C@H](O)[C@@H](O)[C@H](O)[C@H](O)CO"
data_value = "inactive"

[[record]]
molecule = "Cc1cc(Nc2cc(CN3CCOCC3)c3nc(C)c(Cc4ccc(Cl)cc4F)n3n2)n[nH]1"
data_value = "2.35 µM (active)"

[[record]]
molecule = "OC(CCN1CCCCC1)(c1ccccc1)C1CC2C=CC1C2 (stereo unspecified)"
data_value = "inactive"

[[record]]
molecule = "O=C(O)c1ccc2cc(-c3ccc(O)c(C45CC6CC(CC(C6)C4)C5)c3)ccc2c1"
data_value = "0.934 µM (active)"

[[record]]
molecule = "Fc1ccc2[nH]ccc2c1-c1nc(N2CCOCC2)c2sc(CN3CCN(CC4CC4)CC3)cc2n1"
data_value = "16.6 µM (active)"

[[record]]
molecule = "O=C(c1ccc(F)cc1)N1CCC[C@H](c2nc(-c3ccc(F)cc3)no2)C1"
data_value = "inactive"

[[record]]
molecule = "CCCc1nc2c(C)cc(-c3nc4ccccc4n3C)cc2n1Cc1ccc(-c2ccccc2C(=O)O)cc1"
data_value = "inactive"

[[record]]
molecule = "O=C1Nc2ccc(Cl)cc2[C@@](C#CC2CC2)(C(F)(F)F)O1"
data_value = "inactive"

[[record]]
molecule = "COc1ncc(-c2ccc3c(Nc4cc(Oc5cc(F)cc(F)c5)cc(C(=O)O)c4)c(S(=O)(=O)NC4CC4)cnc3c2)c(OC)n1"
data_value = "inactive"

[[record]]
molecule = "O=c1[nH]cnc2[nH]ncc12"
data_value = "inactive"


Each of the following entries comes with a recorded value; kindly state Potency for each.
1. C=C1C(=O)[C@@]23C(CC[C@@H]1[C@H]2O)[C@@]12CO[C@]3(O)[C@@H](O)[C@@H]1C(C)(C)CC[C@@H]2O (stereo partly specified)
2. C[C@](N)(Cc1ccc(O)c(O)c1)C(=O)O
3. CC(=O)O[C@]1(C(C)=O)CC[C@H]2[C@@H]3C[C@H](C)C4=CC(=O)CC[C@]4(C)[C@H]3CC[C@@]21C
4. Oc1cc(O)cc(/C=C/c2ccc(O)c(O)c2)c1

*A*
1: 5.9 µM (active); 2: inactive; 3: 10.5 µM (active); 4: 18.6 µM (active)

Each of the following entries comes with a recorded value; kindly state Potency for each.
1. CCC(CC)CC1(C(=O)Nc2ccccc2SC(=O)C(C)C)CCCCC1
2. O=C(/C=C\n1cnc(-c2cc(C(F)(F)F)cc(C(F)(F)F)c2)n1)NNc1cnccn1
3. NC(=O)c1ncn([C@@H]2O[C@H](CO)[C@@H](O)[C@H]2O)c1O
4. CCCCOC(=O)NS(=O)(=O)c1sc(CC(C)C)cc1-c1ccc(Cn2ccnc2)cc1
5. c1ccc2c(CCNc3ccc(Nc4ccncc4)cc3)c[nH]c2c1

*A*
["inactive", "0.372 µM (active)", "inactive", "inactive", "3.72 µM (active)"]

Each of the following entries comes with a recorded value; kindly state Potency for each.
1. COc1c(OCCCN2CCOCC2)ccc2c3n(c(=NC(=O)c4cnc(N)nc4)nc12)CCN3
2. Fc1ccc(Cl)cc1-c1nc(Nc2ccncc2)c2nccnc2n1
3. COc1cc(N2CCC(N3CCN(C)CC3)CC2)ccc1Nc1ncc(Cl)c(Nc2ccccc2S(=O)(=O)C(C)C)n1
4. CCN1CCN(C(=O)N[C@@H](C(=O)N[C@@H]2C(=O)N3C(C(=O)O)=C(CSc4nnnn4C)CS[C@H]23)c2ccc(O)cc2)C(=O)C1=O
5. CN[C@H](CC(C)C)C(=O)N[C@H]1C(=O)N[C@@H](CC(N)=O)C(=O)N[C@H]2C(=O)N[C@H]3C(=O)N[C@H](C(=O)N[C@H](C(=O)O)c4cc(O)cc(O)c4-c4cc3ccc4O)[C@H](O)c3ccc(c(Cl)c3)Oc3cc2cc(c3O[C@@H]2O[C@H](CO)[C@@H](O)[C@H](O)[C@H]2O[C@H]2C[C@](C)(N)[C@H](O)[C@H](C)O2)Oc2ccc(cc2Cl)[C@H]1O

*A*
["0.0428 µM (active)", "inactive", "2.95 µM (active)", "inactive", "inactive"]

Each of the following entries comes with a recorded value; kindly state Potency for each.
1. COc1cc2c(cc1OC)CN(CCc1ccc(NC(=O)c3cc(OC)c(OC)cc3NC(=O)c3cnc4ccccc4c3)cc1)CC2
2. CCc1cc(Nc2nccc(-c3c(-c4ccc(OC)c(C(=O)Nc5c(F)cccc5F)c4)nc4ccccn34)n2)c(OC)cc1N1CCC(N2CCN(S(C)(=O)=O)CC2)CC1
3. Cc1cc2c(F)c(Oc3ncnn4cc(OC[C@@H](C)O)c(C)c34)ccc2[nH]1
4. COc1ccc2cccc(CCNC(C)=O)c2c1
5. Cc1ccc2c(c1)C(=O)[C@]1(O)CCN(c3ccccc3)C1=N2
6. CN1C(=O)c2sccc2N(C)c2nc(Nc3ccc(S(N)(=O)=O)cc3)ncc21
7. C[C@]1(c2nc3c(C(N)=O)cccc3[nH]2)CCCN1

*A*
1. inactive
2. 10.5 µM (active)
3. inactive
4. inactive
5. inactive
6. 2.35 µM (active)
7. inactive
